Assay Target: ligand binding domain of human FXR (Homo sapiens)
Construct: purchased Thermofisher (LanthaScreen) PV4833
Sequence (Q96RI1 262-486 limits assumed): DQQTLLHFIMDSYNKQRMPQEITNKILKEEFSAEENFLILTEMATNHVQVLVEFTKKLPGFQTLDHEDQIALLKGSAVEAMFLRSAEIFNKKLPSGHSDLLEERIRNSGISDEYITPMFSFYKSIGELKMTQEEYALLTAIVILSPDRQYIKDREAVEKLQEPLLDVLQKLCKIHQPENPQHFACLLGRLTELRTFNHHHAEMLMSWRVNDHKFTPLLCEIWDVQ
Procedure Text: biochemical
Run Conditions: extent of activation relative to GW4064; read-out: Ligand Binding % Efficacy
Field: Emax. Provide a value for each of the compounds that follow.
Give bare numbers, in %.

test_smiles=O=C(O)c1ccc(N2C[C@@H]3C[C@H]2C[C@H]3OCc2c(C3CC3)nnn2-c2c(Cl)cccc2Cl)cc1F assay_target="ligand binding domain of human FXR (Homo sapiens)" unit_descriptor=% meas_value=170
test_smiles=O=C(O)c1ccc(N2C(=O)[C@@H]3C[C@H]2C[C@H]3OCc2c(C3CC3)cnn2-c2c(Cl)cccc2Cl)c(F)c1 assay_target="ligand binding domain of human FXR (Homo sapiens)" unit_descriptor=% meas_value=142
test_smiles=O=C(O)c1cc(C2CCOCC2)c2nc(N3C[C@@H]4C[C@H]3C[C@H]4OCc3c(-c4c(Cl)cccc4Cl)cnn3C3CC3)sc2c1 assay_target="ligand binding domain of human FXR (Homo sapiens)" unit_descriptor=% meas_value=82

For the 3 compounds below, give their Emax values.
1. CC[C@H]1[C@H]2C[C@H](C[C@@H]2OCc2c(C3CC3)cnn2-c2c(Cl)cccc2Cl)N1c1ccc(C(=O)O)cc1
2. C[C@@H]1[C@@H]2C[C@@H](C[C@H]2OCc2c(C3CC3)cnn2-c2c(Cl)cccc2Cl)N1c1ccc(C(=O)NS(=O)(=O)C2CCOCC2)c(F)c1
3. O=C(O)CCc1ccc(N2C[C@@H]3C[C@H]2C[C@H]3OCc2c(C3CC3)cnn2-c2c(Cl)cccc2Cl)c(F)c1

1: 15; 2: 56; 3: 132
